target: UniProtKB Q8ILY1; assay: Fluorescence-based high-throughput DNA polymerase assay (molecular beacon), primary screen and dose-response; format: biochemical; details: DRC-1; 90'; concentration 80
Each record here notes measured % inhibition Apol 90'.
Entry rule: numbers only, all in %.

Consider the reported % inhibition Apol 90' for these compounds:
>>> df
                                   compound  endpoint_value
0  O=c1[nH]c2ccc([N+](=O)[O-])cc2c(-c2ccccc2)c1Sc1nc2ccccc2o1          77.507
1  O=C(Nc1ccc2c(c1)Cc1cc(NC(=O)c3ccco3)ccc1-2)c1ccco1         80.3159
2  COc1ccc(NC(=O)Cn2ccc3c(=O)[nH]ccc32)cc1Cl [Molecule 10, COc1ccc(cc1Cl)NC(=O)Cn1ccc2c1cc[nH]c2=O]         83.0123

Documented % inhibition Apol 90' of CCOc1ccccc1-c1nc(-c2ccc(=O)[nH]c2)no1 [Molecule 76, CCOc1ccccc1c1onc(n1)c1ccc(=O)[nH]c1] : 58.194

* * *

Each record here notes measured % inhibition Apo pol 10'.
molecular target: P. falciparum apicoplast DNA polymerase (Pf-apPOL) (Plasmodium falciparum); assay: Fluorescence-based high-throughput DNA polymerase assay (molecular beacon), primary screen and dose-response; assay type: biochemical; settings: DRC-1; 10'; conc 5
Entry rule: numbers only, all in %.

Consider the reported % inhibition Apo pol 10' for these molecules:
In [3]: df
Out[3]:
                                   molecule  unit_spec  endpoint_value
0  Cc1cccc(C2=N/C(=C\c3ccc([N+](=O)[O-])o3)C(=O)O2)c1 [KU0058960]          %         37.9558
1  N#CC(C#N)=C1SCN(c2cccc(Cl)c2)CS1 [Molecule 29, N#CC(=C1SCN(CS1)c1cccc(c1)Cl)C#N]          %           35.73
2  O=c1nc(/C=C/c2ccc(Br)cc2)oc2ccccc12 [KU0052629]          %           1.877
3  Cc1ccc(CNC(=O)c2cnn3c(O)cc(CSc4ccc(Cl)cc4)nc23)cc1 [Molecule 99]          %            14.3
4  O=C1Nc2ccc(I)cc2C1=Cc1cc(Br)c(O)c(Br)c1 [Molecule 27]          %         14.7903

--- query ---
Documented % inhibition Apo pol 10' of Cc1ccc(NC(=O)Cn2ccc3c(=O)[nH]ccc32)c(C)c1 [KU0205125] : 18.1282

* * *

target: P. falciparum apicoplast DNA polymerase (Pf-apPOL) (Plasmodium falciparum, UniProt Q8ILY1); assay: Fluorescence-based high-throughput DNA polymerase assay (molecular beacon), primary screen and dose-response; format: biochemical; conditions: DRC-1; 10'; concentration 20
Sequence (Q8ILY1 entry or part of it): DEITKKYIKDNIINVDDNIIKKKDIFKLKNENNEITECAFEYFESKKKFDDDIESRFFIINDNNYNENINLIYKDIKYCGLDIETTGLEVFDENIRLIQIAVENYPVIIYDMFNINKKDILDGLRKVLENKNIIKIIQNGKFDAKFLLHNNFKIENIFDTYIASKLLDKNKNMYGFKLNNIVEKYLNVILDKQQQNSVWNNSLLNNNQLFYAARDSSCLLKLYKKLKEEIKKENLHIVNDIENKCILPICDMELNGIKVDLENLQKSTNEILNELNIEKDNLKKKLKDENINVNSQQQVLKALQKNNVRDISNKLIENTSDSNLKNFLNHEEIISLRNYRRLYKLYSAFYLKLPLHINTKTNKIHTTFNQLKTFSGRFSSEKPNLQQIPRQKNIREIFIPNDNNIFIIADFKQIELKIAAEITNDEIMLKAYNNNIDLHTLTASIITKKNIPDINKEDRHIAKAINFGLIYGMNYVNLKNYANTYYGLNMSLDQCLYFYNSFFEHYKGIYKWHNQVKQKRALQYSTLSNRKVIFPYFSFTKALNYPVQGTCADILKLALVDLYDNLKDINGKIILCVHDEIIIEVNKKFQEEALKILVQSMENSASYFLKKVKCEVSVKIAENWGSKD
result type: % inhibition Apo pol 10' (%)
Entry rule: numbers only, all in %.

Documented % inhibition Apo pol 10' of O=C(Cn1ccc2c(=O)[nH]ccc21)Nc1cc(F)ccc1F [Molecule 42, O=C(Cn1ccc2c1cc[nH]c2=O)Nc1cc(F)ccc1F] : 62.1247

Documented % inhibition Apo pol 10' of O=C1N=C(Nc2cccc(Cl)c2Cl)S/C1=C\c1ccco1 [Molecule 3, O=C1N=C(S/C/1=C\c1ccco1)Nc1cccc(c1Cl)Cl] : 70.1447

Documented % inhibition Apo pol 10' of COc1cccc(Oc2c(C(F)(F)F)oc3cc(OC(=O)N(C)C)ccc3c2=O)c1 [Molecule 52] : 35.5271

Documented % inhibition Apo pol 10' of O=C(c1c[nH]c2ncccc12)N1CCCC1 [Molecule 63, O=C(c1c[nH]c2c1cccn2)N1CCCC1] : 50.0486

Documented % inhibition Apo pol 10' of Cc1ccc(-n2nnc(C(=O)O)c2-c2ccccn2)c(F)c1 [Molecule 54, Cc1ccc(c(c1)F)n1nnc(c1c1ccccn1)C(=O)O] : 54.7705

Documented % inhibition Apo pol 10' of Cc1cccc2c(C(=O)NC(C)C)cc(N(C)C)nc12 [Molecule 47, CC(NC(=O)c1cc(nc2c1cccc2C)N(C)C)C] : 57.6029

Documented % inhibition Apo pol 10' of Oc1ccc(N=Nc2ccccc2)c(O)c1 [Molecule 80, Oc1ccc(c(c1)O)N=Nc1ccccc1] : 33.6555

Documented % inhibition Apo pol 10' of O=C(CSc1nc2ccccc2s1)Nc1ncc([N+](=O)[O-])s1 [KU0019667] : 83.6526

Documented % inhibition Apo pol 10' of O=C(Nc1nnc(-c2cccs2)o1)c1ccc([N+](=O)[O-])o1 [Molecule 74] : 31.2083

Data provenance is paper PMC9090415.
